Hello, the source for this data is PubChem BioAssay AID1159580, in case you need it.

- ASSAY_INFO: chemical genetic growth profiling, strain panel (AID 1159580);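 further: tested at 20 µM; growth read once vehicle control cultures reached saturation at 30 °C; 1 = growth at the plate median or of vehicle wells; lower values mean less growth of the strain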
- STATED_CONDITIONS: S. cerevisiae deletion strains, growth OD, locus YLR113W, strain HOG1, hits give low values
Among all 5,500 compounds or so, about 2,000 (36%) were called active. About 18% were inconclusive and are not listed. Some of the results follow.

COMPOUND: CC1(C)S[C@@H]2[C@H](NC(=O)[C@H](C(=O)O)c3cccs3)C(=O)N2[C@H]1C(=O)O
normalized growth: 0.971
--
COMPOUND: Cc1onc(-c2ccccc2)c1C(=O)NC1C(=O)N2[C@@H]1SC(C)(C)[C@@H]2C(=O)O (stereo not given in full)
normalized growth: 0.975
--
COMPOUND: Cc1onc(-c2c(Cl)cccc2Cl)c1C(=O)N[C@@H]1C(=O)N2[C@@H]1SC(C)(C)[C@@H]2C(=O)O
normalized growth: 1.06
--
COMPOUND: O=C(NC1CCCCC1)NC1CCCCC1
normalized growth: 1.03
--
COMPOUND: CNCC[C@@H](Oc1ccccc1)c1ccccc1
normalized growth: 0.965

---

Parameter normalized growth: see the listing below.
- ASSAY_INFO: chemical genetic growth profiling, strain panel (AID 1159580);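 further: tested at 20 µM; growth read once vehicle control cultures reached saturation at 30 °C; 1 = growth at the plate median or of vehicle wells; lower values mean less growth of the strain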
- STATED_CONDITIONS: S. cerevisiae deletion strains, growth OD, locus YDR069C, strain doa4, hits give low values
Hit rate of the full screen: of about 5,500 compounds, about 2,000 (36%) were called active. Another 18% or so got no clear call; they are omitted. Some of the results follow.

COMPOUND: NCCc1c[nH]c2ccccc12
normalized growth: 0.913
--
COMPOUND: Cc1onc(-c2ccccc2Cl)c1C(=O)N[C@@H]1C(=O)N2[C@@H]1SC(C)(C)[C@@H]2C(=O)O
normalized growth: 1.03
--
COMPOUND: C#CC1(O)CCC2C3CCC4=CC(=O)CCC4(C)C3CCC21C (stereo not given)
normalized growth: 0.933
--
COMPOUND: CC(=O)[O][Hg][c]1ccccc1
normalized growth: 0.063
--
COMPOUND: Cc1onc(-c2c(Cl)cccc2Cl)c1C(=O)N[C@@H]1C(=O)N2[C@@H]1SC(C)(C)[C@@H]2C(=O)O
normalized growth: 0.991
--
COMPOUND: CC1(C)S[C@@H]2[C@H](NC(=O)[C@H](C(=O)O)c3cccs3)C(=O)N2[C@H]1C(=O)O
normalized growth: 1.04
--
COMPOUND: CC[C@H]1CN2CCc3cc(OC)c(OC)cc3C2C[C@@H]1CC1NCCc2cc(OC)c(OC)cc21 (stereo not given in full)
normalized growth: 0.946
--
COMPOUND: CC(=O)N[C@@H](Cc1c[nH]c2ccccc12)C(=O)O
normalized growth: 0.998
--
COMPOUND: c1ccc2c(Cc3c[nH]c4ccccc34)c[nH]c2c1
normalized growth: 1
--
COMPOUND: C[C@]12CCC(=O)C=C1CCC1C2[C@@H](O)C[C@@]2(C)C1CC[C@]2(O)C(=O)COC(=O)CCC(=O)O (stereo not given in full)
normalized growth: 1.02

---

- ASSAY_INFO: chemical genetic growth profiling, strain panel (AID 1159580);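 further: tested at 20 µM; growth read once vehicle control cultures reached saturation at 30 °C; 1 = growth at the plate median or of vehicle wells; lower values mean less growth of the strain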
- STATED_CONDITIONS: S. cerevisiae deletion strains, growth OD, locus YPL240C, strain hsp82, hits give low values
In all, about 5,500 compounds went through this assay and about 2,000 (36%) were called active. Inconclusive results (about 18%) are left out. The list shows a part of the results.
Parameter normalized growth: see the listing below.

COMPOUND: CC(=O)OC1CCC2(C)C3CC(=O)C4(C)C(CC5OC6(CCC(C)CO6)[C@@H](C)C54)C3CC[C@H]2C1 (stereo not given in full)
normalized growth: 0.982
--
COMPOUND: COC(=O)C[C@H]1C(C)(C)[C@@H](O)[C@@H]2CC3=C4C=C(OC)O[C@@H](c5ccoc5)[C@]4(C)CCC3[C@@]1(C)C2=O (stereo not given in full)
normalized growth: 0.991
--
COMPOUND: CN1CCN(CCC=C2c3ccccc3Sc3ccc(S(=O)(=O)N(C)C)cc32)CC1
normalized growth: 0.999
--
COMPOUND: O=C(O)c1cc(=O)c2c(Cl)cc(Cl)cc2[nH]1
normalized growth: 1.02
--
COMPOUND: O=C(CCBr)N1CCN(C(=O)CCBr)CC1
normalized growth: 1.02
--
COMPOUND: Cc1cc(C(C)(C)C)cc(C)c1CC1=NCCN1
normalized growth: 0.991
--
COMPOUND: COc1ccc([C@H]2COc3c(ccc(O)c3OC)C2)c(OC)c1O
normalized growth: 0.963
--
COMPOUND: COc1c2c(cc3c1OCO3)C13C=C[C@H](OC)CC1N(C2)CC3O (stereo not given in full)
normalized growth: 0.992
--
COMPOUND: O=C(O)c1cc(=O)c2cccc(O)c2[nH]1
normalized growth: 1.01
--
COMPOUND: CN1CCN(CCCN2c3ccccc3Sc3ccc(C(F)(F)F)cc32)CC1
normalized growth: 0.0671
